Listed below: activation at 0.1 µM values for each entry.
target of assay: GABAA receptors (α5β2γ2) (Homo sapiens, UniProt P18507+P31644)
Construct: expressed in transfected cells
Sequence (P31644 32-462): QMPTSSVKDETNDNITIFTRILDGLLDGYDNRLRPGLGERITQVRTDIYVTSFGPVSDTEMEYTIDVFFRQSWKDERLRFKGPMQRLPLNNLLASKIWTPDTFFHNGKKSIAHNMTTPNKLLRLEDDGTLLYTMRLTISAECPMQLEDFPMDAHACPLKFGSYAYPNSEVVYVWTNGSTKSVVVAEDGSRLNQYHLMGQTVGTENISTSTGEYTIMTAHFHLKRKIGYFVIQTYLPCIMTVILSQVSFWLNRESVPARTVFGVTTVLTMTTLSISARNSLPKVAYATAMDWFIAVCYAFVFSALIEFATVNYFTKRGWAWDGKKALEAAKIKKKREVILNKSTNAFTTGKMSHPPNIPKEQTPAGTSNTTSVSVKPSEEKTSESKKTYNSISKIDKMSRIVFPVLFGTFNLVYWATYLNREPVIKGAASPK
Sequence (P47870 25-512, further chain): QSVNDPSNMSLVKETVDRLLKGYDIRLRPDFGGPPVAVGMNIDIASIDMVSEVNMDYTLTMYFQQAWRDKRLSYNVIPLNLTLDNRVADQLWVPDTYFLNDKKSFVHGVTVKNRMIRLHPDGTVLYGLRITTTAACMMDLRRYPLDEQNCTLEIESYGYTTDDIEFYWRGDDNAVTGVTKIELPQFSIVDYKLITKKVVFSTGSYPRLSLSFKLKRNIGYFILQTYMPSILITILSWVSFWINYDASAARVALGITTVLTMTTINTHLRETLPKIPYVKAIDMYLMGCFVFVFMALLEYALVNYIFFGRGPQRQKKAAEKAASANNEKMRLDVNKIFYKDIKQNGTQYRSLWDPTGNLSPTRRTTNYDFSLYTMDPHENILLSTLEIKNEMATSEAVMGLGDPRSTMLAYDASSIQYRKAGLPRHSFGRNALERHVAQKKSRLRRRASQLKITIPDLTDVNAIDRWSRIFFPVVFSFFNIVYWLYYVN
Sequence (P18507 40-475): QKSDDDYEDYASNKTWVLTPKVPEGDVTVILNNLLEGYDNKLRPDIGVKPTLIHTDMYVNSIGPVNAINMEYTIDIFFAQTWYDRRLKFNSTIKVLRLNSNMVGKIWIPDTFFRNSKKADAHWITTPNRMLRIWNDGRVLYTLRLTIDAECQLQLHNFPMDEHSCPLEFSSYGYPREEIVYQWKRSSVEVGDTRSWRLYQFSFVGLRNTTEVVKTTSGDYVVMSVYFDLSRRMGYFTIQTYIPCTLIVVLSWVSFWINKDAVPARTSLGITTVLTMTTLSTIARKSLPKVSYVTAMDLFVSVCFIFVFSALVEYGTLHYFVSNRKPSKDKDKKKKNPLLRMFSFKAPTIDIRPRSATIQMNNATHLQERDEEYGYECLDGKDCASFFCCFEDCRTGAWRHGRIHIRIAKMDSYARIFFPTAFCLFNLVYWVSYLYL
assay summary: Positive allosteric modulator activity: potentiation of EC20 GABA current in oocytes
Type: cell-based
recorded conditions: read-out: GABA α5 Functional Data (potentiation of EC20 GABA); @ 100 nM; ranges

COCc1nnc2n1Cc1c(C#Cc3cnccn3)ncn1-c1ccc(Cl)cc1-2: 20 to 50%
COCc1nnc2n1Cc1c(C#Cc3ccc(C(C)C)cc3)ncn1-c1ccc(OC)cc1-2: 5 to 20%
Cc1nnc(-c2ncn3c2Cc2cnnn2-c2cc(Cl)ccc2-3)o1: 5 to 20%
COCc1nnc2n1Cc1c(C#Cc3cnc(C)cn3)ncn1-c1ccc(Cl)cc1-2: > 50%
CCOc1ccc(C#Cc2ncn3c2Cn2c(COC)nnc2-c2cc(OC)ccc2-3)cn1: 5 to 20%

activation at 0.1 µM on GABAA receptors (α5β2γ2) (Homo sapiens, UniProt P18507+P31644) for COCc1nnc2n1Cc1c(C#Cc3cnc4occc4c3)ncn1-c1ccc(Cl)cc1-2 is 20 to 50%

activation at 0.1 µM on GABAA receptors (α5β2γ2) (Homo sapiens, UniProt P18507+P31644) for COCc1nnc2n1Cc1c(C#Cc3ccc4nccn4c3)ncn1-c1ccc(Cl)cc1-2 is 20 to 50%

activation at 0.1 µM on GABAA receptors (α5β2γ2) (Homo sapiens, UniProt P18507+P31644) for COc1ccc2c(c1)-n1nncc1Cc1c(C#Cc3cnc(C)n3C)ncn1-2 is > 50%

----------
target of assay: α5β3γ2 GABAA receptors (Homo sapiens, UniProt P18507+P31644)
Sequence (P28472 26-473 partner, one chain of several): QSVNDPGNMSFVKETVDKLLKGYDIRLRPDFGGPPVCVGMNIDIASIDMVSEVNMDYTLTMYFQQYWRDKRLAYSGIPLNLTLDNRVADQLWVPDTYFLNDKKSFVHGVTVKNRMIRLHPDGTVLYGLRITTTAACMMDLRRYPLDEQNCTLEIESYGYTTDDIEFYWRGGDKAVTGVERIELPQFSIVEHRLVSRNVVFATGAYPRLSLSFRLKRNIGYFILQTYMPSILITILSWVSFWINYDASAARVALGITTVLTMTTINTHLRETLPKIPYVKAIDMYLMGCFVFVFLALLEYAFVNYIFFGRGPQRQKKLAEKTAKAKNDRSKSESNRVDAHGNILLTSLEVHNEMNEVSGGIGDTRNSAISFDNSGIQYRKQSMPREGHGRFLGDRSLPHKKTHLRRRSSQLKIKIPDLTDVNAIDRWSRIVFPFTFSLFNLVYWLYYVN
assay summary: [3H]Ro15-1788 binding, membranes of Ltk cells stably expressing α5β3γ2 GABAA receptors
recorded conditions: ranges; inhibition of [3H]Ro15-1788 binding
parameter measured: Ki

A selection of reference data follows.
Clc1ccc2c(c1)-n1nncc1Cc1c(COCc3ccccc3)ncn1-2 [Compound 544]: < 100 nM
COCc1nnc2n1Cc1c(C#Cc3ccc(OC)c(C)n3)ncn1-c1ccc(Cl)cc1-2 [Compound 581]: < 100 nM
COCc1nnc2n1Cc1c(C#Cc3ccc(OC)c(F)n3)ncn1-c1ccc(OC)cc1-2 [Compound 583]: 100 to 1000 nM
Fc1cccc(OCc2ncn3c2Cc2cnnn2-c2cc(Cl)ccc2-3)c1 [Compound 546]: < 100 nM

Please look at the following compound next.
Given item COCc1nnc2n1Cc1c(C)ncn1-c1ccc(OC)cc1-2 [Compound 329] , the value recorded as its Ki is > 1000 nM

----------
target of assay: α5β3γ2 GABAA receptors (Homo sapiens, UniProt P18507+P31644)
assay summary: [3H]Ro15-1788 binding, membranes of Ltk cells stably expressing α5β3γ2 GABAA receptors
recorded conditions: ranges; inhibition of [3H]Ro15-1788 binding
parameter measured: Ki

A selection of reference data follows.
COCc1nnc2n1Cc1c(C#Cc3ccc(C)cn3)ncn1-c1ccc(OC)cc1-2 [Compound 562]: < 0.1 µM
COCc1nnc2n1Cc1c(C#Cc3cnc(C)nc3)ncn1-c1ccc(OC)cc1-2 [Compound 594]: 0.1 to 1 µM
COCc1nnc2n1Cc1c(C#Cc3ccc(F)cn3)ncn1-c1ccc(OC)cc1-2 [Compound 585]: < 0.1 µM

Please look at the following molecule next.
Ki on α5β3γ2 GABAA receptors (Homo sapiens, UniProt P18507+P31644) for COc1ccc2c(c1)-n1nncc1Cc1c(C3=N[C@H](c4cccc(Cl)c4)CO3)ncn1-2 [Compound 516] is < 0.1 µM

----------
target of assay: α5β3γ2 GABAA receptors (Homo sapiens, UniProt P18507+P31644)
assay summary: [3H]Ro15-1788 binding, membranes of Ltk cells stably expressing α5β3γ2 GABAA receptors
recorded conditions: ranges; inhibition of [3H]Ro15-1788 binding
pKi: −log10 of the molar value.
parameter measured: pKi

COCc1nnc2n1Cc1c(C#Cc3cccnc3OC)ncn1-c1ccc(OC)cc1-2: > 7.00
COCc1nnc2n1Cc1c(C#Cc3cnc(OC)s3)ncn1-c1ccc(OC)cc1-2: > 7.00
COc1ccc2c(c1)-n1nncc1Cc1c(C3=N[C@H](c4ccc(F)cc4)CO3)ncn1-2: > 7.00
Clc1ccc([C@@H]2CN=C(c3ncn4c3Cc3cnnn3-c3cc(Cl)ccc3-4)O2)cc1: > 7.00
Clc1cccc([C@@H]2COC(c3ncn4c3Cc3cnnn3-c3cc(Cl)ccc3-4)=N2)c1: > 7.00
COCc1nnc2n1Cc1c(C#Cc3ccc(C#N)cn3)ncn1-c1ccc(OC)cc1-2: 6.00 to 7.00
COCc1nnc2n1Cc1c(C#Cc3cnc(C)cn3)ncn1-c1ccc(Cl)cc1-2: > 7.00
Brc1ccc2c(c1)-n1nncc1Cc1c(C3=N[C@H](c4ccccc4)CO3)ncn1-2: > 7.00

Given item COCc1nnc2n1Cc1c(C#Cc3cccnc3OC)ncn1-c1ccc(Cl)cc1-2 , the value recorded as its pKi is > 7.00

Given item COCc1nnc2n1Cc1c(C#Cc3ccn(C)n3)ncn1-c1ccc(Cl)cc1-2 , the value recorded as its pKi is > 7.00

Given item COCc1nnc2n1Cc1c(C#Cc3ccc(=O)n(C)c3)ncn1-c1ccc(Cl)cc1-2 , the value recorded as its pKi is > 7.00

Given item COCc1nnc2n1Cc1c(C#Cc3cnc(OC)s3)ncn1-c1ccc(Cl)cc1-2 , the value recorded as its pKi is > 7.00

Given item COCc1nnc2n1Cc1c(C#Cc3nc(C)cs3)ncn1-c1ccc(OC)cc1-2 , the value recorded as its pKi is > 7.00

----------
Listed below: activation at 0.1 µM values for each entry.
target of assay: GABAA receptors (α5β2γ2) (Homo sapiens, UniProt P18507+P31644)
Construct: expressed in transfected cells
assay summary: Positive allosteric modulator activity: potentiation of EC20 GABA current in oocytes
Assay type: cell-based
recorded conditions: read-out: GABA α5 Functional Data (potentiation of EC20 GABA); @ 100 nM; ranges

COCc1nnc2n1Cc1c(C#Cc3cncc(OC)c3)ncn1-c1ccc(Cl)cc1-2 [Compound 559]: 5 to 20%
COCc1nnn2c1Cc1c(C#Cc3cnc(OC)s3)ncn1-c1ccc(Cl)cc1-2 [Compound 644]: 20 to 50%

Please look at the following molecule next.
Given item COc1ccc2c(c1)-n1nncc1Cc1c(C#Cc3cncc(C)c3)ncn1-2 [Compound 617] , the value recorded as its activation at 0.1 µM is 5 to 20%

----------
target of assay: α5β3γ2 GABAA receptors (Homo sapiens, UniProt P18507+P31644)
assay summary: [3H]Ro15-1788 binding, membranes of Ltk cells stably expressing α5β3γ2 GABAA receptors
recorded conditions: ranges; inhibition of [3H]Ro15-1788 binding
Listed below: Ki values for each entry.

COCc1nnn2c1Cc1c(C#Cc3ccn(C)n3)ncn1-c1ccc(Cl)cc1-2 [Compound 643]: < 0.1 µM
CC(C)OCc1nnc2n1Cc1c(-c3nc(-c4ccccc4)co3)ncn1-c1ccc(Cl)cc1-2 [Compound 276]: < 0.1 µM
COCc1nnc2n1Cc1c(C#Cc3cnc4occc4c3)ncn1-c1ccc(OC)cc1-2 [Compound 674]: < 0.1 µM
CC(C)c1noc(-c2ncn3c2Cc2c(Cc4ccc(F)cc4)nnn2-c2cc(OC(F)(F)F)ccc2-3)n1 [Compound 483]: < 0.1 µM
COCc1nnc2n1Cc1c(C#Cc3ccc(SC)nc3)ncn1-c1ccc(OC)cc1-2 [Compound 665]: 0.1 to 1 µM

Given item COc1ccc2c(c1)-n1nncc1Cc1c(C#Cc3ccc(OC)nn3)ncn1-2 [Compound 694] , the value recorded as its Ki is < 0.1 µM

Given item Cc1noc(-c2ncn3c2Cc2c(Cc4cccc(F)c4)nnn2-c2cc(C(F)(F)F)ccc2-3)n1 [Compound 482] , the value recorded as its Ki is < 0.1 µM

Given item CC1(C)OC(c2ncn3c2Cc2cnnn2-c2cc(OC(F)(F)F)ccc2-3)=N[C@@H]1c1ccccc1 [Compound 510] , the value recorded as its Ki is < 0.1 µM

Given item FC(F)(F)c1ccc2c(c1)-n1nncc1Cc1c(C#Cc3ccc(Cl)cc3)ncn1-2 [Compound 502] , the value recorded as its Ki is < 0.1 µM

Given item COc1ccc2c(c1)-n1nncc1Cc1c(C#Cc3ccn(C)n3)ncn1-2 [Compound 670] , the value recorded as its Ki is < 0.1 µM

Given item CC1(C)OC(c2ncn3c2Cc2cnnn2-c2cc(OC(F)F)ccc2-3)=N[C@H]1c1ccccc1 [Compound 626] , the value recorded as its Ki is 0.1 to 1 µM

Given item COCc1nnc2n1Cc1c(C#Cc3cnccn3)ncn1-c1ccc(Cl)cc1-2 [Compound 576] , the value recorded as its Ki is < 0.1 µM

Given item COc1ccc2c(c1)-n1nncc1Cc1c(C#Cc3cnc(C)n3C)ncn1-2 [Compound 667] , the value recorded as its Ki is < 0.1 µM

Given item COCc1nnc2n1Cc1c(C#Cc3ccc(C)nc3)ncn1-c1ccc(OC)cc1-2 [Compound 561] , the value recorded as its Ki is < 0.1 µM

The origin of these recorded values is patent US11414425B2.
